- Tested on: Setaria faberi (SETFA)
- Protocol Text: Post-emergence herbicidal activity (B2)
- Assay type: in vivo
- Test Context: Test B2b; post-emergence application; rate 1000 g/ha; evaluated after 13 days; score 0-5
Recorded measurements of damage to plant, SETFA, one per entry

Below, each entry is followed by its recorded damage to plant, SETFA result.
Short answer for Nc1ncc(-c2cncc(F)c2)nc1C(F)(F)F : damage to plant, SETFA was 3

Short answer for C=Cc1nc(-c2cncc(F)c2)cnc1N : damage to plant, SETFA was 1

Short answer for Cc1nc(-c2cncc(F)c2)cnc1N(C)C : damage to plant, SETFA was 3

Short answer for Cc1nc(-c2cncc(F)c2)cnc1N : damage to plant, SETFA was 3

Others:
Short answer for CCOC(=O)c1nc(-c2cncnc2)cnc1N : damage to plant, SETFA was 3

Short answer for Nc1ncc(-c2cncnc2)nc1C(F)(F)F : damage to plant, SETFA was 3

Short answer for CC(C)c1nc(-c2cncc(F)c2)cnc1N : damage to plant, SETFA was 4

Short answer for C=C(C)c1nc(-c2cncc(F)c2)cnc1N : damage to plant, SETFA was 4

Short answer for CNc1ncc(-c2cncc(F)c2)nc1C : damage to plant, SETFA was 1

Short answer for OCNc1ncc(-c2cncc(F)c2)nc1C(F)(F)F : damage to plant, SETFA was 3

Short answer for CCCNc1ncc(-c2cncc(F)c2)nc1C(F)(F)F : damage to plant, SETFA was 4
